The origin of these recorded values is patent US20260139048A1.

Here the recorded kon is given for each entry.
Target: T1, His-tagged cynomolgus TIGIT (cynomolgus, UniProt A0A7N9I9V4 89-209)
T1 construct: SPR analyte; also called cynomolgus TIGIT protein; not shown: His tag
T1 sequence (A0A7N9I9V4 entry or part of it): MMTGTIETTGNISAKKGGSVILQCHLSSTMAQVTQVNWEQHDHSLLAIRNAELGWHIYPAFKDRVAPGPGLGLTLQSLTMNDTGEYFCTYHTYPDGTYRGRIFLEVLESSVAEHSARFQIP
Experiment: SPR (Biacore T200), antibody captured, His-tagged TIGIT analyte
recorded-metric: kon (M⁻¹ s⁻¹)

binder | recorded-metric | units-label | meas-value
TIGIT-52 chimeric antibody (antibody, human IgG1, kappa, V domains shown, Full-length chimeric IgG1 kappa) VH: EVQLVESGGGLVEPGGSLTLSCVASGFTFSSFAMSWVRQTPEKRLEWVATISNGGSYTYYPDTVKGRFTISRDNAKNTLFLQMSSLRSEDTAMYYCARPYYGTTYGYYFDFWGQGTTLTVSS VL: QIVLTQSPASLAVSLGQRATISCRASESVDRNGNSFMHWYQQKPGQPPKLLIYLASNLESGVPARFSGSGSRTDFTLTIDPVEADDAATYYCQQNNEDPLTFGAGTKLELKR | kon | M⁻¹ s⁻¹ | 220000
TIGIT-63 chimeric antibody (antibody, human IgG1, kappa, V domains shown, Full-length chimeric IgG1 kappa) VH: DVQLVESGGGLVQPGGSLSLSCAASGFTFTDYYMNWVRQPPGKALEWLGFIRNKANGYTTEYSASVKGRFTISRDNSQSILYLQMNALRAEDSATYYCARSTAWYFDVWGTGTTLTVSS VL: DIQMTQSPASLSASVGGTVTITCRASEHIYSYLAWYQQKQGKSPQLLVYNAKTLAEGVPSRFSGSGSGTQFSLKINSLQPKDFGSYYCQHHYGNPLTFGAGTKLELKR | kon | M⁻¹ s⁻¹ | 140000
TIGIT-100 chimeric antibody (antibody, human IgG1, kappa, V domains shown, Full-length chimeric IgG1 kappa) VH: QVQLQQPGPELVKPGASVKISCKASGYSFTDYNMNWVKQSNGKSLEWIGVINPNSGTDNYNQKFKGKATLTVDQSSSTAYMQLNSLTSEDSAVYFCARGVYFGNYFDSWGQGTTLTVSS VL: DIVMTQSPASLSASVGETVTITCRASENIYSSLAWYQQKQGKSPQLLVFNAKTLTEGVPSRFSGSGSGTQFSLKINSLQPEDFGSYYCQHHYGAPWTFGGGTKLEIKR | kon | M⁻¹ s⁻¹ | 420000
TIGIT-15 chimeric antibody (antibody, human IgG1, kappa, V domains shown, Full-length chimeric IgG1 kappa) VH: DVQLVESGGGLVQPGGSLKLSCAASGFTFSSYGMSWVRQTPDRRLELVATINNNGGSTYYPDSVKGRFTISRDNARNTLYLQMSSLKSEDTAMYYCATRTGTEILGFDFWGQGTTLTVSS VL: DIVLTQSHKFMSTSLGDRVSITCKASQDVSTAVAWYQQKPGQSPKLLIYWASSRHTGVPDRFTGSRSGPDYTLTISSVQAEDLALYYCQQQYSTPWTFGGGTKLEIKR | kon | M⁻¹ s⁻¹ | 180000
TIGIT-94 chimeric antibody (antibody, human IgG1, kappa, V domains shown, Full-length chimeric IgG1 kappa) VH: EVKLVESGGGLVKPGGSLKLSCAASGFTFSTYTMSWVRQTPEKRLEWVATISSGGTYTHYPDSVKGRFTISRDNAKNTLYLQMSSLKSEDTAMYYCTRWFLSLYAMDYWGQGTSVTVSS VL: DIVMTQSTSSLSASLGDRVTISCRASQDINNFLNWYQQKPAGTVDLLIYYTSRLHSGVPSRFSGSGSGTDYSLTISNLDQEDIATYFCQQGNTFPYTFGGGTRLEIKR | kon | M⁻¹ s⁻¹ | 980000
